- test_system: Protein smoothened (Homo sapiens) (UniProt Q99835)
- Sequence (Q99835 whole entry): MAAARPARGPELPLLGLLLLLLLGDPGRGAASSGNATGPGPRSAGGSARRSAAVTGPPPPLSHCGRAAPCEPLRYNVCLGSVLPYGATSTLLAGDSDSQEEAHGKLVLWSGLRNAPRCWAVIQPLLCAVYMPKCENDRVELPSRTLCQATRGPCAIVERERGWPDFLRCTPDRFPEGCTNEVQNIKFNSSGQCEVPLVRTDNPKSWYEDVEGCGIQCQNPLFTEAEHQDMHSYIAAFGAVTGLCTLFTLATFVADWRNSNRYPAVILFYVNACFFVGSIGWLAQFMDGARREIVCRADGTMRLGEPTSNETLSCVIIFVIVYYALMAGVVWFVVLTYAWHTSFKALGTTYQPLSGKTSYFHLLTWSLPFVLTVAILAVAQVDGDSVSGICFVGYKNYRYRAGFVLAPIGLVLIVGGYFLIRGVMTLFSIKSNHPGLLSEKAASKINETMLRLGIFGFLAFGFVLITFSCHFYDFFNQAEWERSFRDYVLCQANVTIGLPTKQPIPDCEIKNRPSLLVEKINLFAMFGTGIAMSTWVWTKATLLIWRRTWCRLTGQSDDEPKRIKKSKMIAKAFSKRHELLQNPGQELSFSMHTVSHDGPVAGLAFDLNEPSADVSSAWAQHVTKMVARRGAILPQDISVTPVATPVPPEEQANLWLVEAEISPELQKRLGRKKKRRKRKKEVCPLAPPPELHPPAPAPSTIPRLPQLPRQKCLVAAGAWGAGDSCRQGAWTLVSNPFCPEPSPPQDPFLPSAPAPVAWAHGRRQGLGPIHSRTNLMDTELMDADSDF
- method_description: Inhibition of SMO expressed in mouse C3H10T1/2 cells assessed as down-regulation of Gli1 mRNA expression at 5 uM after 24 hrs by RT-PCR analysis relative to oxysterol
- Type: cell-based
- Set-up: scale not given: the % may be the effect or the level left
- setup_conditions: C3H 10T1/2
Label label 1 when Activity >= 80%; otherwise label 0.

sample_smiles | discrete_label
CC(C)CCC[C@@H](C)[C@H]1CC[C@H]2[C@@H](O)CCC[C@]12C | label 0
CC(C)CCC[C@@H](C)[C@H]1CC[C@H]2C(=O)CCC[C@]12C | label 0
CC(C)[C@@H](C)/C=C/[C@@H](C)[C@H]1CC[C@H]2[C@@H](O)CCC[C@]12C | label 0
C[C@H](CO)[C@H]1CC[C@H]2[C@@H](O)CCC[C@]12C | label 1

###

- method_description: Down-regulation of Gli1 mRNA expression in human U87MG cells at 10 uM after 24 hrs by RT-PCR analysis relative to DMSO-treated control
- Assay type: functional, cell-based
- setup_conditions: U-87MG ATCC
measure: fold change (FC)

molecule | value_reported
CC(C)CCC[C@@H](C)[C@H]1CC[C@H]2C(CCC3C[C@@H](O)CCC3C)CCC[C@]12C (some centres not stated) | 0.8
C=C1CC[C@H](O)C/C1=C\C=C1/CCC[C@]2(C)[C@@H]([C@H](C)CO)CC[C@@H]12 | 0.8
C=C1CC[C@H](O)C/C1=C/CO | 0.9
CC(C)CCC[C@@H](C)[C@H]1CCC2=CCCC[C@@]21C | 1
C[C@H](CO)[C@H]1CC[C@H]2[C@@H](O)CCC[C@]12C | 1
C=C1CC[C@H](O)C/C1=C\C=C1/CCC[C@]2(C)[C@@H]([C@H](C)CCCC(C)C)CC[C@@H]12 | 1.1
C=C1CC[C@H](O)C/C1=C/C=C1\CCC[C@]2(C)[C@@H]([C@H](C)CO)CC[C@@H]12 | 1

###

- test_system: UniProt:Q99835
- method_description: Inhibition of SMO expressed in mouse C3H10T1/2 cells assessed as down-regulation of Gli1 mRNA expression at 5 uM after 24 hrs by RT-PCR analysis relative to oxysterol
- Format: cell-based
- Parameters: scale not given: the % may be the effect or the level left
- setup_conditions: C3H 10T1/2

compound | test_system | reading_unit | Activity
CC(C)CCC[C@@H](C)[C@H]1CCC2=CCCC[C@@]21C | UniProt:Q99835 | % | 111
C=C1CC[C@H](O)C/C1=C/CO | UniProt:Q99835 | % | 80.9
C=C1CC[C@H](O)C/C1=C/C=C1\CCC[C@]2(C)[C@@H]([C@H](C)/C=C/[C@H](C)C(C)C)CC[C@@H]12 [ERGOCALCIFEROL] | UniProt:Q99835 | % | 28.1
CC(C)CCC[C@@H](C)[C@H]1CC[C@H]2C(CCC3C[C@@H](O)CCC3C)CCC[C@]12C (stereo partly drawn) | UniProt:Q99835 | % | 82.1
C=C1CC[C@H](O)C/C1=C/C=C1\CCC[C@]2(C)[C@@H]([C@H](C)CO)CC[C@@H]12 | UniProt:Q99835 | % | 80
C=C1CC[C@H](O)C/C1=C\C=C1/CCC[C@]2(C)[C@@H]([C@H](C)CO)CC[C@@H]12 | UniProt:Q99835 | % | 66.7
C=C1CC[C@H](O)C/C1=C\C=C1/CCC[C@]2(C)[C@@H]([C@H](C)CCCC(C)C)CC[C@@H]12 | UniProt:Q99835 | % | 69.7
C=C1CC[C@H](O)C/C1=C/C(O)C1(O)CCC[C@]2(C)[C@@H]([C@H](C)CCCC(C)C)CC[C@@H]12 (stereo partly drawn) | UniProt:Q99835 | % | 144
